FYI, the data here is from patent US4489091A.

target: chymotripsin (Bos taurus); assay: Chymotripsin inhibiting activity; assay type: biochemical; settings: 0.5 h; compound 1×10^-4 mole, ATEE substrate, pH 8.0, 37° C.; read-out: Percent chymotripsin inhibition
// values below are reported inhibition at 100 µM
recorded.metric: inhibition at 100 µM (%)

molecule=CCCCCC(=O)COS(=O)(=O)c1ccc(Cl)cc1 assayed_target="chymotripsin (Bos taurus)" recorded_metric="inhibition at 100 µM" value_measured=100
molecule=CCOc1ccc(S(=O)(=O)OCC(=O)CC(CC)CC)cc1 assayed_target="chymotripsin (Bos taurus)" recorded_metric="inhibition at 100 µM" value_measured=14
molecule=CCCCCCCC(=O)COS(=O)(=O)c1ccc(OC)cc1 assayed_target="chymotripsin (Bos taurus)" recorded_metric="inhibition at 100 µM" value_measured=91
molecule=CCCCCC(=O)COS(=O)(=O)c1ccccc1 assayed_target="chymotripsin (Bos taurus)" recorded_metric="inhibition at 100 µM" value_measured=100
molecule=CCCCCCCCCCC(=O)COS(=O)(=O)c1c(C)cc(C)cc1C assayed_target="chymotripsin (Bos taurus)" recorded_metric="inhibition at 100 µM" value_measured=55
molecule=C=CCCCCCCCCC(=O)COS(=O)(=O)c1c(C)cc(C)c(C)c1C assayed_target="chymotripsin (Bos taurus)" recorded_metric="inhibition at 100 µM" value_measured=23
molecule="CCCCC(CC)C(=O)COS(=O)(=O)c1ccc(OCC)cc1 (stereo not drawn)" assayed_target="chymotripsin (Bos taurus)" recorded_metric="inhibition at 100 µM" value_measured=31
molecule=C=CCCC(=O)COS(=O)(=O)c1ccccc1 assayed_target="chymotripsin (Bos taurus)" recorded_metric="inhibition at 100 µM" value_measured=25
molecule="CCCCCC(C)C(=O)COS(=O)(=O)c1ccc(C)cc1 (stereo not drawn)" assayed_target="chymotripsin (Bos taurus)" recorded_metric="inhibition at 100 µM" value_measured=52
molecule=CCCC(=O)COS(=O)(=O)c1cc(C)ccc1C assayed_target="chymotripsin (Bos taurus)" recorded_metric="inhibition at 100 µM" value_measured=4
molecule=CCCCCCCCC(=O)COS(=O)(=O)c1c(C)cc(C)c(C)c1C assayed_target="chymotripsin (Bos taurus)" recorded_metric="inhibition at 100 µM" value_measured=26
molecule=CCCCC(CCCC)C(=O)COS(=O)(=O)c1ccc(C)cc1 assayed_target="chymotripsin (Bos taurus)" recorded_metric="inhibition at 100 µM" value_measured=30

====

target: chymotripsin (Bos taurus, UniProt P00766); assay: Chymotripsin inhibiting activity; assay type: biochemical; conditions: 0.5 h; compound 1×10^-4 mole, ATEE substrate, pH 8.0, 37° C.; read-out: Percent chymotripsin inhibition
recorded.metric: inhibition at 100 µM (%)

compound="O=C(COS(=O)(=O)c1ccc(Cl)cc1)C1CCCCC1 [Compound 179]" value_measured=32
compound="Cc1cc(C)c(S(=O)(=O)OCC(=O)CC(C)C)c(C)c1 [Compound 149]" value_measured=7
compound="CCCC(=O)COS(=O)(=O)c1cc(C)c(C)cc1C [Compound 116]" value_measured=0
compound="CC(=O)OCCCC(=O)COS(=O)(=O)c1ccccc1 [Compound 195]" value_measured=22.2
compound="CCCCCCC(=O)COS(=O)(=O)c1ccccc1C [Compound 31]" value_measured=100

====

test: Acute toxicity; details: rat, in vivo, po
recorded.metric: LD50

molecule=CCCCCCCC(=O)COS(=O)(=O)c1ccc(OCC)cc1 value_measured="> 4000 mg/kg"
molecule=CCCCCCCCCCC(=O)COS(=O)(=O)c1c(C)cc(C)cc1C value_measured="> 4000 mg/kg"
molecule=CCCCC(=O)COS(=O)(=O)c1c(C)cc(C)c(C)c1C value_measured="> 3000 mg/kg"
molecule=CCCCCCC(=O)COS(=O)(=O)c1ccccc1C value_measured="> 2000 mg/kg"
molecule=CCCCC(CCCC)C(=O)COS(=O)(=O)c1ccc(OCC)cc1 value_measured="> 3000 mg/kg"
molecule=CCCCOc1ccc(S(=O)(=O)OCC(=O)CCC(C)C)cc1 value_measured="> 4000 mg/kg"
molecule=CCCC(=O)COS(=O)(=O)c1cc(Cl)ccc1Cl value_measured="> 1500 mg/kg"
molecule=CCCCCCCCC(=O)COS(=O)(=O)c1c(C)cc(C)cc1C value_measured="> 4000 mg/kg"
molecule=C=CCCCCCCCCC(=O)COS(=O)(=O)c1ccc(OC)cc1 value_measured="> 4000 mg/kg"
molecule=Cc1cc(C)c(C)c(S(=O)(=O)OCC(=O)CCCCCCC(C)C)c1C value_measured="> 3000 mg/kg"
molecule=CCCCCCCC(=O)COS(=O)(=O)c1c(C)c(C)cc(C)c1C value_measured="> 3000 mg/kg"
molecule=CCCCCCCCCCCCC(=O)COS(=O)(=O)c1ccc(C)cc1 value_measured="> 3000 mg/kg"
molecule=Cc1cc(C)c(S(=O)(=O)OCC(=O)CCCCCCC(C)C)c(C)c1 value_measured="> 4000 mg/kg"
molecule=CCC(CC)CC(=O)COS(=O)(=O)c1c(C)cc(C)cc1C value_measured="> 4000 mg/kg"
molecule="CCCCC(C)C(=O)COS(=O)(=O)c1c(C)cc(C)cc1C (stereo not shown)" value_measured="> 3000 mg/kg"
molecule="CCC(C)C(=O)COS(=O)(=O)c1c(C)cc(C)c(C)c1C (stereo not shown)" value_measured="> 3000 mg/kg"
molecule=CCCCCCCCCC(=O)COS(=O)(=O)c1ccc(OCCCC)cc1 value_measured="> 4000 mg/kg"
molecule="CCCCCC(C)C(=O)COS(=O)(=O)c1ccc(OCC)cc1 (stereo not shown)" value_measured="> 4000 mg/kg"
molecule=CCCC(=O)COS(=O)(=O)c1ccc(C)cc1C value_measured="> 2000 mg/kg"
molecule=CCOc1ccc(S(=O)(=O)OCC(=O)CC(C)C)cc1 value_measured="> 2000 mg/kg"
molecule=CCC(=O)COS(=O)(=O)c1ccc(C)cc1 value_measured="> 1500 mg/kg"
molecule=CCCCCCCCC(=O)COS(=O)(=O)c1c(C)cc(C)c(C)c1C value_measured="> 4000 mg/kg"
molecule="CCCCC(CC)C(=O)COS(=O)(=O)c1ccc(C)cc1 (stereo not shown)" value_measured="> 4000 mg/kg"
molecule="CCC(C)CC(=O)COS(=O)(=O)c1c(C)cc(C)cc1C (stereo not shown)" value_measured="> 4000 mg/kg"
molecule=CCCCCC(=O)COS(=O)(=O)c1ccc(OC)cc1 value_measured="> 2000 mg/kg"
molecule="CCCCC(CCC)C(=O)COS(=O)(=O)c1c(C)cc(C)cc1C (stereo not shown)" value_measured="4000 mg/kg"
molecule=CCCC(=O)COS(=O)(=O)c1ccc(OC)cc1 value_measured="> 1500 mg/kg"
molecule=CCCCC(CCCC)C(=O)COS(=O)(=O)c1c(C)cc(C)cc1C value_measured="> 4000 mg/kg"
molecule=CCCC(=O)COS(=O)(=O)c1c(C)c(C)c(C)c(C)c1C value_measured="> 3000 mg/kg"
molecule=CCCCCCCCCCCC(=O)COS(=O)(=O)c1ccc(O)cc1 value_measured="> 3000 mg/kg"
molecule=CCCC(=O)COS(=O)(=O)c1ccc(C)c(C)c1C value_measured="> 2000 mg/kg"
molecule=CCOc1ccc(S(=O)(=O)OCC(=O)CCCC(C)C)cc1 value_measured="> 3000 mg/kg"
molecule=CCCCCCCCC(=O)COS(=O)(=O)c1ccc(C)cc1 value_measured="> 3000 mg/kg"
molecule=CCCCCCCCC(=O)COS(=O)(=O)c1ccc(O)cc1 value_measured="> 3000 mg/kg"
molecule="CCCC(C)C(=O)COS(=O)(=O)c1ccc(C)cc1 (stereo not shown)" value_measured="> 3000 mg/kg"
molecule=C=CCCC(=O)COS(=O)(=O)c1ccc(OCC)cc1 value_measured="> 2000 mg/kg"
molecule=CCCC(=O)COS(=O)(=O)c1ccc(Cl)cc1 value_measured="> 1000 mg/kg"
molecule=CC(C)CCC(=O)COS(=O)(=O)c1ccc(Cl)cc1 value_measured="> 2000 mg/kg"
molecule="CCCC(C)C(=O)COS(=O)(=O)c1c(C)cc(C)cc1C (stereo not shown)" value_measured="> 3000 mg/kg"
molecule="CCCCC(CCC)C(=O)COS(=O)(=O)c1ccc(C)cc1 (stereo not shown)" value_measured="> 3000 mg/kg"

====

test: Acute toxicity; conditions: rat, in vivo, po
// values below are reported LD50
recorded.metric: LD50

compound=C=CCCC(=O)COS(=O)(=O)c1c(C)c(C)cc(C)c1C recorded_metric=LD50 value_measured="> 3000 mg/kg"
compound=CCCCC(=O)COS(=O)(=O)c1ccc(C)cc1 recorded_metric=LD50 value_measured="> 2000 mg/kg"
compound=CCCCCC(=O)COS(=O)(=O)c1c(C)c(C)cc(C)c1C recorded_metric=LD50 value_measured="> 3000 mg/kg"
compound=C=CCCC(=O)COS(=O)(=O)c1c(C)cc(C)cc1C recorded_metric=LD50 value_measured="> 3000 mg/kg"
compound="CCC(C)CC(=O)COS(=O)(=O)c1ccc(C)cc1 (centres unmarked)" recorded_metric=LD50 value_measured="> 3000 mg/kg"
compound="CCCCCC(C)C(=O)COS(=O)(=O)c1ccc(C)cc1 (centres unmarked)" recorded_metric=LD50 value_measured="> 3000 mg/kg"
compound=CCCCCCC(=O)COS(=O)(=O)c1ccccc1 recorded_metric=LD50 value_measured="> 3000 mg/kg"
compound=COc1ccc(S(=O)(=O)OCC(=O)CCC(C)C)cc1 recorded_metric=LD50 value_measured="> 2000 mg/kg"
compound="CCCC(C)CC(=O)COS(=O)(=O)c1c(C)cc(C)cc1C (centres unmarked)" recorded_metric=LD50 value_measured="> 4000 mg/kg"
compound=CCCCCCCCCCCCc1ccc(S(=O)(=O)OCC(=O)CCC)cc1 recorded_metric=LD50 value_measured="> 3000 mg/kg"
compound=CCCCCC(=O)COS(=O)(=O)c1c(C)cc(C)cc1C recorded_metric=LD50 value_measured="> 3000 mg/kg"
compound=CCCCCCCCCC(=O)COS(=O)(=O)c1ccc(C)cc1 recorded_metric=LD50 value_measured="> 3000 mg/kg"
compound="CCCC(CC)C(=O)COS(=O)(=O)c1ccc(OCC)cc1 (centres unmarked)" recorded_metric=LD50 value_measured="> 4500 mg/kg"
compound="CCCC(CC)C(=O)COS(=O)(=O)c1c(C)cc(C)cc1C (centres unmarked)" recorded_metric=LD50 value_measured="> 3000 mg/kg"
compound="CCCCC(CC)C(=O)COS(=O)(=O)c1ccccc1C (centres unmarked)" recorded_metric=LD50 value_measured="> 3000 mg/kg"
compound=CCOc1ccc(S(=O)(=O)OCC(=O)C(CC)CC)cc1 recorded_metric=LD50 value_measured="> 2000 mg/kg"
compound="CCC(C)C(=O)COS(=O)(=O)c1c(C)cc(C)cc1C (centres unmarked)" recorded_metric=LD50 value_measured="> 3000 mg/kg"
compound="CCOc1ccc(S(=O)(=O)OCC(=O)CCC(C)CC)cc1 (centres unmarked)" recorded_metric=LD50 value_measured="> 4000 mg/kg"
compound=CCCC(CCC)C(=O)COS(=O)(=O)c1ccc(C)cc1 recorded_metric=LD50 value_measured="> 3000 mg/kg"
compound=Cc1ccc(S(=O)(=O)OCC(=O)CCC(C)C)cc1 recorded_metric=LD50 value_measured="> 3000 mg/kg"
